Tested on: NCI-H460 (non-small cell lung carcinoma)
Test: Antiproliferative activity, sulforhodamine B (SRB) assay
Format: cell-based, human
Details: exposure 72 h, 3-fold dilutions, α-MEM + 5% fetal calf serum, 37 °C, mean ± SD of at least three independent experiments
pIC50: −log10 of the molar value.
Value Type: pIC50

input: Report measured pIC50; entry is [Cl][Cu][Cl] [CuCl2, reference compound]
output: < 4.15

* * *

log *K4N (protonation-corrected stability constant of Cu(II) 4N complex) by entry:
Experiment: Potentiometric titration of peptides with CuCl2: Cu(II) binding constants and competitivity index at pH 7.4
Format: physicochemical
Details: log β{CuHn-4L} – log β{HnL}; potentiometry, 25 °C, I=0.1 (KNO3)
Where a SMILES comes first, the peptide text is derived from it. [ ]: non-standard residue; d: D form. βAla = NCCC(=O)O
Give the figure by itself; no unit, no explanation.

- Compound: "NCC(=O)NCCC(=O)N[C@@H](Cc1c[nH]cn1)C(=O)NCC(=O)N[C@@H](CO)C(=O)N[C@@H](CO)C(N)=O [Peptide c] (H-G[βAla]HGSS-NH2)"
  Measured Value: -18.426
- Compound: "NCCCC[C@H](NC(=O)[C@H](Cc1c[nH]cn1)NC(=O)CCNC(=O)[C@@H](N)CCCCN)C(=O)N[C@@H](CO)C(=O)N[C@@H](CO)C(N)=O [d] (H-K[βAla]HKSS-NH2)"
  Measured Value: -17.537

input: Recall and state the measured log *K4N (protonation-corrected stability constant of Cu(II) 4N complex) for NCCCC[C@H](NC(=O)[C@H](Cc1c[nH]cn1)NC(=O)CCNC(=O)[C@@H](N)Cc1c[nH]c2ccccc12)C(=O)N[C@@H](CO)C(=O)N[C@@H](CO)C(N)=O [g] (H-W[βAla]HKSS-NH2) .
output: -16.738

input: Fill in reported log *K4N (protonation-corrected stability constant of Cu(II) 4N complex) for this entry: NC(=O)[C@H](CO)NC(=O)[C@H](CO)NC(=O)[C@H](Cc1c[nH]c2ccccc12)NC(=O)[C@H](Cc1c[nH]cn1)NC(=O)CCNC(=O)[C@@H](N)Cc1c[nH]c2ccccc12 [e] (H-W[βAla]HWSS-NH2)
output: -16.804

input: Could you please provide reported log *K4N (protonation-corrected stability constant of Cu(II) 4N complex) for NCCCC[C@H](N)C(=O)NCCC(=O)N[C@@H](Cc1c[nH]cn1)C(=O)N[C@@H](Cc1c[nH]c2ccccc12)C(=O)N[C@@H](CO)C(=O)N[C@@H](CO)C(N)=O [f] (H-K[βAla]HWSS-NH2) ? Thanks!
output: -17.435

* * *

Assay: Potentiometric titration of peptides: protonation constants
Type: physicochemical
Settings: protonation constant, potentiometry, 1 mM peptide, 25 °C, I=0.1 (KNO3); error on last digit in parentheses
Where a SMILES comes first, the peptide text is derived from it. [ ]: non-standard residue; d: D form. βAla = NCCC(=O)O
# Lookup of reported log β HL keyed by entry

Known log β HL results, listed for orientation:
- Compound: "NCCCC[C@H](NC(=O)[C@H](Cc1c[nH]cn1)NC(=O)CCNC(=O)[C@@H](N)Cc1c[nH]c2ccccc12)C(=O)N[C@@H](CO)C(=O)N[C@@H](CO)C(N)=O [g] (H-W[βAla]HKSS-NH2)"
  Measured Value: "10.255(3)"
- Compound: "NC(=O)[C@H](CO)NC(=O)[C@H](CO)NC(=O)[C@H](Cc1c[nH]c2ccccc12)NC(=O)[C@H](Cc1c[nH]cn1)NC(=O)CCNC(=O)[C@@H](N)Cc1c[nH]c2ccccc12 [e] (H-W[βAla]HWSS-NH2)"
  Measured Value: "7.584(3)"
- Compound: "NCCCC[C@H](NC(=O)[C@H](Cc1c[nH]cn1)NC(=O)CCNC(=O)[C@@H](N)CCCCN)C(=O)N[C@@H](CO)C(=O)N[C@@H](CO)C(N)=O [d] (H-K[βAla]HKSS-NH2)"
  Measured Value: "10.656(3)"
- Compound: "NCCCC[C@H](N)C(=O)NCCC(=O)N[C@@H](Cc1c[nH]cn1)C(=O)N[C@@H](Cc1c[nH]c2ccccc12)C(=O)N[C@@H](CO)C(=O)N[C@@H](CO)C(N)=O [f] (H-K[βAla]HWSS-NH2)"
  Measured Value: "10.262(3)"

Next up:
input: State, in one line, measured log β HL of NCC(=O)NCCC(=O)N[C@@H](Cc1c[nH]cn1)C(=O)NCC(=O)N[C@@H](CO)C(=O)N[C@@H](CO)C(N)=O [Peptide c] (H-G[βAla]HGSS-NH2)
output: 8.001(2)

Data provenance: paper PMC9299640
